# Protocol text: Pharmacokinetic study in mice, non-compartmental analysis
# Type: in vivo, Female BALB/c mice
# Conditions: female, BALB/c, mouse, plasma, iv, 50 mg/kg
Property measured: clearance (mL/min)
Give the quantity in mL/min, number only.

Summary for this molecule, Cc1[nH]nc(C(F)(F)F)c1Cc1sc2c(c1C(=O)N1C[C@](C)(O)CO1)c(=O)n(C)c(=O)n2C(C)C [AZD3965] : clearance is 0.383

* * *

# Protocol text: Pharmacokinetic study in mice, non-compartmental analysis
# Format: in vivo, Female BALB/c mice
# Conditions: female, BALB/c, mouse, plasma, iv, 10 mg/kg
Property measured: clearance

Form: molecule = Cc1[nH]nc(C(F)(F)F)c1Cc1sc2c(c1C(=O)N1C[C@](C)(O)CO1)c(=O)n(C)c(=O)n2C(C)C [AZD3965] ; clearance = 0.773 mL/min

* * *

# Protocol text: Pharmacokinetic study in mice, non-compartmental analysis
# Format: in vivo, Female BALB/c mice
# Conditions: female, BALB/c, mouse, plasma, po, 100 mg/kg
Property measured: Cmax (ng/mL)
Use ng/mL as the unit, but write only the number.

Input Cc1[nH]nc(C(F)(F)F)c1Cc1sc2c(c1C(=O)N1C[C@](C)(O)CO1)c(=O)n(C)c(=O)n2C(C)C [AZD3965] . Output Cmax: 30300

* * *

# Protocol text: Pharmacokinetic study in mice, non-compartmental analysis
# Type: in vivo, Female BALB/c mice
# Conditions: female, BALB/c, mouse, plasma, iv, 50 mg/kg
Property measured: k el (s⁻¹)
Quick reminder: number only, in s⁻¹, skip the unit.

Lookup result for Cc1[nH]nc(C(F)(F)F)c1Cc1sc2c(c1C(=O)N1C[C@](C)(O)CO1)c(=O)n(C)c(=O)n2C(C)C ; measured k el: 7.39e-05

* * *

# Protocol text: Pharmacokinetic study in mice, non-compartmental analysis
# Type: in vivo, Female BALB/c mice
# Conditions: female, BALB/c, mouse, plasma, iv, 100 mg/kg
Property measured: Cmax (µg/mL)
Field: numeric (µg/mL). Do not append units.

Entry Cc1[nH]nc(C(F)(F)F)c1Cc1sc2c(c1C(=O)N1C[C@](C)(O)CO1)c(=O)n(C)c(=O)n2C(C)C [AZD3965] , Cmax reported as 54.5

* * *

# Protocol text: Pharmacokinetic study in mice, non-compartmental analysis
# Type: in vivo, Female BALB/c mice
# Conditions: female, BALB/c, mouse, plasma, iv, 50 mg/kg
Property measured: half-life (h)
Just the number please, in h, no unit attached.

For record Cc1[nH]nc(C(F)(F)F)c1Cc1sc2c(c1C(=O)N1C[C@](C)(O)CO1)c(=O)n(C)c(=O)n2C(C)C the listed half-life is 2.6

* * *

# Protocol text: Pharmacokinetic study in mice, non-compartmental analysis
# Assay type: in vivo, Female BALB/c mice
# Conditions: female, BALB/c, mouse, plasma, iv, 100 mg/kg
Property measured: AUC(0-inf) (ng·h/mL)
Field format: number, assumed ng·h/mL, no unit text.

Measured AUC(0-inf), Cc1[nH]nc(C(F)(F)F)c1Cc1sc2c(c1C(=O)N1C[C@](C)(O)CO1)c(=O)n(C)c(=O)n2C(C)C [AZD3965] : 86400

* * *

# Protocol text: Pharmacokinetic study in mice, non-compartmental analysis
# Type: in vivo, Female BALB/c mice
# Conditions: female, BALB/c, mouse, plasma, oral, 100 mg/kg
Property measured: bioavailability (%)
Just the number please, in %, no unit attached.

Measured bioavailability, Cc1[nH]nc(C(F)(F)F)c1Cc1sc2c(c1C(=O)N1C[C@](C)(O)CO1)c(=O)n(C)c(=O)n2C(C)C : 82.7

Origin of the recorded values: paper PMC8164216
